system: MIA PaCa-2; assay: Antiproliferative activity against human MIA PaCa-2 cells assessed as cell viability measured after 168 hrs incubation by SRB assay; assay type: functional, cell-based; settings: MIA PaCa-2, 168 h
measurement_kind: IC50 (µM)

Worked set:
| compound | assay_target | IC50, µM |
| --- | --- | --- |
| C[C@@H](Oc1cc2oc(=O)cc(-c3ccc(F)cc3Cl)c2cc1F)C(=O)N1CCCOCC1 | MIA PaCa-2 | 0.072 |
| CC(C)c1cc2c(-c3ccc(F)cc3Cl)cc(=O)oc2cc1O[C@H](C)C(=O)N1CCC[C@H](C(=O)O)C1 | MIA PaCa-2 | 1.09 |
| CCN(CC)C(=O)[C@@H](C)Oc1cc2oc(=O)cc(-c3ccc(Cl)cc3)c2cc1F | MIA PaCa-2 | 2.24 |

A. C[C@@H](Oc1cc2oc(=O)cc(-c3ccc(F)cc3Cl)c2cc1F)C(=O)N1CCCCC1
B. CC1CCN(C(=O)[C@@H](C)Oc2cc3oc(=O)cc(-c4ccc(F)cc4Cl)c3cc2F)CC1
C. CCN(CC)C(=O)[C@@H](C)Oc1cc2oc(=O)cc(-c3ccccc3C)c2cc1F
D. C[C@@H](Oc1cc2oc(=O)cc(-c3ccc(F)cc3Cl)c2cc1F)C(=O)NCC(F)F
Rank ascending by IC50. Please respond with the labels ordered as the question requires.
C, A, D, B
(C: 0.005 µM, A: 0.078 µM, D: 0.139 µM, B: 0.486 µM)

###

target: DNA-directed RNA polymerase, mitochondrial (Homo sapiens) (UniProt O00411); test: Inhibition of human POLRMT in human MIA PaCa-2 cells assessed as mitochondria coded ubiquinone oxidoreductase core subunit 1 (ND I) transcript level at 500 nM measured after 24 hrs by RT-qPCR analysis relative to control; set-up: scale not given: the % may be the effect or the level left
Sequence (O00411 whole entry): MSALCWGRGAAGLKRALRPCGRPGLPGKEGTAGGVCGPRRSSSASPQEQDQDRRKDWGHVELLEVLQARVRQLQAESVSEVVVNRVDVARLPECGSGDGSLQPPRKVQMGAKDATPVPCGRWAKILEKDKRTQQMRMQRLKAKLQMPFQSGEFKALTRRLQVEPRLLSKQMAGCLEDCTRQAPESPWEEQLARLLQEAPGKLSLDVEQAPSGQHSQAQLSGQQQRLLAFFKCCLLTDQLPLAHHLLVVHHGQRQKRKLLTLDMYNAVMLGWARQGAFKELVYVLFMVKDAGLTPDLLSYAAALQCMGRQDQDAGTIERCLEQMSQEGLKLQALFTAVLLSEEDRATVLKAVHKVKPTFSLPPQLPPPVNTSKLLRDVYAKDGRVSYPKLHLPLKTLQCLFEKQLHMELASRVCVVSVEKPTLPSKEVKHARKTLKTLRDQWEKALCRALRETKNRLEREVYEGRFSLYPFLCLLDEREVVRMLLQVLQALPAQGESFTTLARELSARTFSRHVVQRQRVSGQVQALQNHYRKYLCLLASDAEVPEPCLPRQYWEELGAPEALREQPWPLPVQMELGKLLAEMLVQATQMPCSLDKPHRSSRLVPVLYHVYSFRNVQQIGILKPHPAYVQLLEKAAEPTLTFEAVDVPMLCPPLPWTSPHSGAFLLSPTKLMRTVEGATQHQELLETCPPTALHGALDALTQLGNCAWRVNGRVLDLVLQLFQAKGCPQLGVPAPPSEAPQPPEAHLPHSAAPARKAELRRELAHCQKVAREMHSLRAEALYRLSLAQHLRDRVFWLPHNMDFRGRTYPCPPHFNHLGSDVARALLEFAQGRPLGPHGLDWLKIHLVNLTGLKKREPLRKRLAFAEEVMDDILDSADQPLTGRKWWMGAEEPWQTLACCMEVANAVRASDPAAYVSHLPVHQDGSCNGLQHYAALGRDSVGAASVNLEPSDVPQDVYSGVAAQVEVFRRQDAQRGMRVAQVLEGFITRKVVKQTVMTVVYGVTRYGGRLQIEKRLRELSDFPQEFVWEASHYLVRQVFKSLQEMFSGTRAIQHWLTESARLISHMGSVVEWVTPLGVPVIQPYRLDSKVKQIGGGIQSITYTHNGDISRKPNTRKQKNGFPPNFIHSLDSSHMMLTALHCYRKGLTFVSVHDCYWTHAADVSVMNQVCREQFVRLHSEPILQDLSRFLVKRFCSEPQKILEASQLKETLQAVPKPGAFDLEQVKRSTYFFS
measurement_kind: Activity (%)

| smiles_record | readout_number |
| --- | --- |
| C[C@@H](Oc1cc2oc(=O)cc(-c3ccc(F)cc3Cl)c2cc1F)C(=O)N1CCC(F)(F)CC1 | 28 |

1. CO[C@H]1CC[C@@H](NC(=O)[C@@H](C)Oc2cc3oc(=O)cc(-c4ccc(F)cc4Cl)c3cc2F)CC1
2. C[C@@H](Oc1cc2oc(=O)cc(-c3ccc(F)cc3Cl)c2cc1F)C(=O)N(C)C
# returns the entry with the larger Activity; inputs 1 and 2 Write the label of whichever entry you select.
1
(1: 52%, 2: 25%)

###

molecular target: UniProt:O00411; test: Inhibition of human POLRMT in human MIA PaCa-2 cells assessed as mitochondria coded ubiquinone oxidoreductase core subunit 1 (ND I) transcript level at 500 nM measured after 24 hrs by RT-qPCR analysis relative to control; parameters: scale not given: the % may be the effect or the level left
measurement_kind: Activity (%)

Some solved entries appear below for comparison.
| smiles_record | assay_target | measurement_kind | readout_number |
| --- | --- | --- | --- |
| C[C@@H](Oc1cc2oc(=O)cc(-c3ccc(F)cc3Cl)c2cc1Cl)C(=O)N1CCC[C@H](C(=O)O)C1 | UniProt:O00411 | Activity | 30 |
| C[C@@H](Oc1cc2oc(=O)cc(-c3ccc(F)cc3Cl)c2cc1F)C(=O)N1CCC[C@H](C(=O)O)C1 | UniProt:O00411 | Activity | 22 |
| C[C@@H](Oc1cc2oc(=O)cc(-c3ccc(F)cc3Cl)c2cc1F)C(=O)N1CCC(Cl)CC1 | UniProt:O00411 | Activity | 34 |

P. C[C@@H](Oc1cc2oc(=O)cc(-c3ccc(F)cc3Cl)c2cc1F)C(=O)N1CCC(F)CC1
Q. CC1CCN(C(=O)[C@@H](C)Oc2cc3oc(=O)cc(-c4ccc(F)cc4Cl)c3cc2F)CC1
R. CC(C)c1cc2c(-c3ccc(F)cc3Cl)cc(=O)oc2cc1O[C@H](C)C(=O)N1CCC[C@H](C(=O)O)C1
Order the records so the highest Activity appears first and the lowest last. The response must list the labels following the requested ordering.
R, Q, P
(R: 46%, Q: 31%, P: 19%)

Source: ChEMBL document CHEMBL5550206
